Data origin, for the record: paper PMC4336329

Readings of hERG current change (%, negative = inhibition) at 10uM for the listed compounds
- assay_system: human ether-à-go-go-related gene (hERG) potassium channel (human, UniProt Q12809);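 further: peak tail current of the secondary pulse compared with the same well before compound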
- Sequence (Q12809 whole entry, looked up): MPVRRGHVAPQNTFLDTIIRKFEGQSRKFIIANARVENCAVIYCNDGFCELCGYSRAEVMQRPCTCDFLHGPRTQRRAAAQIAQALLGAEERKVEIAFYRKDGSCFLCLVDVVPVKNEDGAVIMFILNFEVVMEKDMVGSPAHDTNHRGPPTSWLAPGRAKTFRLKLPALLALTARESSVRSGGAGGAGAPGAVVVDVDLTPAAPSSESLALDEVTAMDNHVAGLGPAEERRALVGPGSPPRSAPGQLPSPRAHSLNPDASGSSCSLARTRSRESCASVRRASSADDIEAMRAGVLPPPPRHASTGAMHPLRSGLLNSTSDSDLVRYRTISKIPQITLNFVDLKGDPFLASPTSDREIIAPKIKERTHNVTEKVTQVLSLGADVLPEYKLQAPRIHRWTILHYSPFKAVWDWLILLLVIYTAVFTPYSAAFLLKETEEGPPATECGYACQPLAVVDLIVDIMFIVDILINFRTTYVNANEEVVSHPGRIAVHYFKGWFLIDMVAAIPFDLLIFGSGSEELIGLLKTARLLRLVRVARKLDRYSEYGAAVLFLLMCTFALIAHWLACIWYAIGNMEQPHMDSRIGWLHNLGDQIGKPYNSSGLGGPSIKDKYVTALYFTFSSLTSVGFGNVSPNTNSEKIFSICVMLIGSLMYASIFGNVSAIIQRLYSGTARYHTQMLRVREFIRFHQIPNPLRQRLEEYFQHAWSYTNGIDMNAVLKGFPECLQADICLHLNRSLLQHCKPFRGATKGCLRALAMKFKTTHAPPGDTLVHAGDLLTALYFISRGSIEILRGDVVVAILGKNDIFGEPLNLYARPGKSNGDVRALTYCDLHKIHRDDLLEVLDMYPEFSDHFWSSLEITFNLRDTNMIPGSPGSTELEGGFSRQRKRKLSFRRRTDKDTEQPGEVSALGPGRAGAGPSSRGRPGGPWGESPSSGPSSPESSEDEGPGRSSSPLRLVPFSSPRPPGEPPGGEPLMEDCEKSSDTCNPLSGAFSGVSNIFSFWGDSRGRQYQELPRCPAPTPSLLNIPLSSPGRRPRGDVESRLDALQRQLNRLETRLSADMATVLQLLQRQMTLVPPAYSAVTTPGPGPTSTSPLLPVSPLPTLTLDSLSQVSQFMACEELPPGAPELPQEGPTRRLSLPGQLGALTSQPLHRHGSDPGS
- protocol: primary screen, population patch clamp on CHO cells stably expressing hERG; higher = less effect of the substance
The campaign covered roughly 310,000 compounds. About 14,000 (4.5%) showed an effect of 50% or more. Effects have a minus sign here. Many of the other results were omitted from the sample, so strong results are more common in it than they were.
Please state the figure in %; there is no need to write the unit.

hERG current change (%, negative = inhibition) at 10uM lookup needed for `O=C(CSc1nc2ccccc2n1-c1ccccc1)Nc1ncc(Cl)cc1Cl` , thanks.
12.1

Continuing:
Entry `CC(C)(CO)NCc1c(OCc2ccc(Cl)cc2)ccc2ccccc12.Cl` : reported hERG current change (%, negative = inhibition) at 10uM = ?
-75.6

Please report the recorded hERG current change (%, negative = inhibition) at 10uM for `Cc1nc(NC(=O)c2cccnc2Cl)sc1C` .
4.14

Requested field: hERG current change (%, negative = inhibition) at 10uM. Item: `O=c1[nH]c(=O)n(CCC2=CCCCC2)c(O)c1C=NC1CCN(Cc2ccccc2)CC1`
-58.6

Which hERG current change (%, negative = inhibition) at 10uM is listed for `COc1ccccc1/C=N/NC(=O)c1ccc(Cn2nc([N+](=O)[O-])cc2C)cc1` ?
-12.7

Name the reported hERG current change (%, negative = inhibition) at 10uM value associated with the compound `Cc1ccc(-c2cc(-c3cccs3)[nH]n2)c(O)c1`
1.75

Please give the measured hERG current change (%, negative = inhibition) at 10uM for this compound: `O=c1[nH]c(=O)n(Cc2ccco2)c(O)c1/C=N/N1CCCCC1`
3.21

====

- assay_system: human ether-à-go-go-related gene (hERG) potassium channel (human, UniProt Q12809);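 further: peak tail current of the secondary pulse compared with the same well before compound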
- protocol: primary screen, population patch clamp on CHO cells stably expressing hERG; higher = less effect of the substance
- Description: Briefly, Chinese hamster ovary (CHO) cells stably expressing the hERG channel were dislodged from tissue culture flasks and dispensed into PPC plates. […] During the recording, background leak currents were estimated by a 100 ms step to -80 mV from an initial holding potential of -70 mV and subtracted from the subsequent current measurement. The campaign was conducted in two phases using slight differences in recording protocol. […]
Hit rate of the full screen: of about 310,000 compounds, about 14,000 (4.5%) showed an effect of 50% or more. Effects have a minus sign here. The entries come from a sample that favours strong results as a whole.
measured_endpoint: hERG current change (%, negative = inhibition) at 10uM (%)
State the answer as a number, implicitly in %.

Some molecules with known hERG current change (%, negative = inhibition) at 10uM results, for comparison:
Entry Cc1ccc(NC(=O)CSc2nc3ccccc3c(=O)n2CC2CCCO2)cc1 (centres unmarked) has what hERG current change (%, negative = inhibition) at 10uM?
0.693

Could you tell me which hERG current change (%, negative = inhibition) at 10uM is on file for `O=C(O)CN1C(=O)c2ccc(Oc3ccc([N+](=O)[O-])cc3)cc2C1=O` ?
23.2

# input molecule: `O=C(CSc1nc(-c2ccccc2)cs1)N1CCc2ccccc21` ; wanted: its hERG current change (%, negative = inhibition) at 10uM
3.61

State the recorded hERG current change (%, negative = inhibition) at 10uM for this entry: `COc1cc(CNc2nc(C)c([N+](=O)[O-])c(C)c2C#N)cc(OC)c1`
10.8

---
hERG current change (%, negative = inhibition) at 10uM for `NC1=NC[C@H](Cc2ccccc2)N1CCc1cccc(F)c1` ?
6.16

Name the recorded hERG current change (%, negative = inhibition) at 10uM for `Cc1ccc2c(c1)[C@@H]1CN(C)CC[C@@H]1N2C(=O)Nc1cccc(C(F)(F)F)c1` .
-38.5

# lookup: hERG current change (%, negative = inhibition) at 10uM of CC(Oc1ccc(F)cc1)C(=O)N(CCC1=CCCCC1)c1c(N)n(Cc2ccccc2)c(=O)[nH]c1=O (centres unmarked)
-52

Need hERG current change (%, negative = inhibition) at 10uM of `O=C(NCC1CC1)[C@@H]1C[C@H]1[C@@H](NP(=O)(c1ccccc1)c1ccccc1)c1ccccc1` , thanks.
-13.9

May I ask what hERG current change (%, negative = inhibition) at 10uM has been recorded for `COc1cc(SC)ccc1C(=O)N1CCN(S(=O)(=O)/C=C/c2ccccc2)CC1` ?
-56.5

Any idea what hERG current change (%, negative = inhibition) at 10uM was measured for `CC(=O)c1c(C)[nH]c(C(=O)COC(=O)COc2ccccc2F)c1C` ?
-3.3

State the recorded hERG current change (%, negative = inhibition) at 10uM for this entry: `COCC(=O)OC/C(O)=C(\C#N)c1nc2ccccc2[nH]1`
11

Query: hERG current change (%, negative = inhibition) at 10uM; subject: `O=C(O)CCN1C(=O)c2ccc(Oc3ccc([N+](=O)[O-])cc3)cc2C1=O`
4.85

Given the entry `COc1ccc(-c2nn(-c3ccccc3)cc2/C=C2/SC(=S)N(CCCC(=O)O)C2=O)c(C)c1` , report its measured hERG current change (%, negative = inhibition) at 10uM.
26

Look at this molecule and give its reported hERG current change (%, negative = inhibition) at 10uM. `O=C1c2ccc(Oc3ccc([N+](=O)[O-])cc3)cc2C(=O)N1CCCO`
-60.8

Please give the measured hERG current change (%, negative = inhibition) at 10uM for this molecule: Cc1ccc2c(c1)C1CN(C)CCC1N2C(=O)/C=C/c1ccc2c(c1)OCO2 (centres unmarked)
-62.6

Entry under review: Cc1ccc2c(c1)C1CN(C)CCC1N2C(=O)Nc1cccc(C(F)(F)F)c1 (centres unmarked) . Reported hERG current change (%, negative = inhibition) at 10uM?
-52.4

Suppose we examine the molecule `COc1ccc(Br)c(C(=O)N2CCN(S(=O)(=O)c3cccs3)CC2)c1` ; what hERG current change (%, negative = inhibition) at 10uM value has been reported?
-9.75

Param item = `Cc1ccc(NC(=O)CSc2nc3ccccc3c(=O)n2CCCC(=O)NCCCN2CCOCC2)cc1` ; retrieve measured hERG current change (%, negative = inhibition) at 10uM.
-52.6

Data request, read-out hERG current change (%, negative = inhibition) at 10uM, for O=C1OC(c2ccc3c(c2)OCO3)N(C(=O)c2ccc(Cl)c(Cl)c2)c2ccccc21 (centres unmarked)
15.1

Suppose we examine the molecule `CN(Cc1ccccc1)C(=O)COC(=O)c1ccccc1Nc1ccccc1` ; what hERG current change (%, negative = inhibition) at 10uM value has been reported?
13

Quick check: hERG current change (%, negative = inhibition) at 10uM of `Cc1ccc(-n2c(SCC(=O)Nc3ccc(N4CCOCC4)cc3)nc3ccccc3c2=O)cc1` ?
6.08

hERG current change (%, negative = inhibition) at 10uM for `CCc1ccc(CN(C)C(=O)CCc2nc3ccccc3n(-c3ccc(OC)cc3)c2=O)cc1` ?
-0.36
